# Inhibition of binding (%) listing for each entry below
# Tgt: hCMV gH + gL + UL128 + UL130 + UL131A (co-expressed in HEK293T cells) (human cytomegalovirus), P12824
# Method Notes: competitor: 4N10-biotin; cell staining
# Run Conditions: remark: other sources report otherwise
Entry rule: numbers only, all in %.

4I22 (antibody, V domains shown) VH: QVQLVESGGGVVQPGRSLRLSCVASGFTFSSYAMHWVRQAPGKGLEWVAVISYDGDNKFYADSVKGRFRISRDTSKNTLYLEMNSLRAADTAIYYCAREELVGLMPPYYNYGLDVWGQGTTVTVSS VL: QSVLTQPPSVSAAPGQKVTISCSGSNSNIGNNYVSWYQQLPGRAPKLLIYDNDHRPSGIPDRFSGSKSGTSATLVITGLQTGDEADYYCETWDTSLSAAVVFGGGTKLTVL | 0
10F7 (antibody, V domains shown) VH: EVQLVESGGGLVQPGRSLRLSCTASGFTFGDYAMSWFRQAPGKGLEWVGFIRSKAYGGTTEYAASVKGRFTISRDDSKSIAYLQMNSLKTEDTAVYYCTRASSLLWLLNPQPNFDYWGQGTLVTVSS VL: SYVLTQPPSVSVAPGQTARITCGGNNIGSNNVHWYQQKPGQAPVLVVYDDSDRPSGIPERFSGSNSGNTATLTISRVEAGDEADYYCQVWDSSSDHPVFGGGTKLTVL | 0
4N10 (antibody, V domains shown) VH: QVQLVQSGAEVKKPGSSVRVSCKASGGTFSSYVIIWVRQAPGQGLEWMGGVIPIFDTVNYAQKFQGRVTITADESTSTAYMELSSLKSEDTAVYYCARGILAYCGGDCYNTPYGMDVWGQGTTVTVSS VL: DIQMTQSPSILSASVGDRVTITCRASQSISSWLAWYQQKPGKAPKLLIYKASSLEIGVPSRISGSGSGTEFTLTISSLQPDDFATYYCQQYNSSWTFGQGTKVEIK | 100

State the recorded Inhibition of binding (%) for this entry: 15D8 (antibody, V domains shown) VH: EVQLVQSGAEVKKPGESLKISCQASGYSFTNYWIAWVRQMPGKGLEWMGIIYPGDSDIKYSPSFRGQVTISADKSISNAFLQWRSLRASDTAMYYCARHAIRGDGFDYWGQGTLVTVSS VL: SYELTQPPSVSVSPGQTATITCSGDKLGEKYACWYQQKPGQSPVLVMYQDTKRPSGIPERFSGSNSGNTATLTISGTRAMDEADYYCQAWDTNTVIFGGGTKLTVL
0
